# assay comment: in vivo
# Parameters: species or system BALB/c nude mice
# experimental context: mouse, Lung uptake
Numbered stars: 1 amine (or outer) side, 2 acyl side, 3 side chain; on linkers, the order of the positions; unused ones are H or OH. Square brackets hold non-standard residues; d marks the D form. Peptide text beside a SMILES is read from it. * marks the point of attachment. DOTA = O=C(O)CN1CCN(CC(=O)O)CCN(CC(=O)*)CCN(CC(=O)O)CC1; d(γGlu) = O=C(O)[C@@H](CCC(=O)[*:2])N[*:1]; 1Nal = N[C@@H](Cc1cccc2ccccc12)C(=O)O; NMeNle = CCCC[C@H](NC)C(=O)O; PEG4 = NCCOCCOCCOCCOCCC(=O)O
metric name: tissue uptake at 2 h (%ID/g)

INSERT INTO assay_data (compound, assay_result) VALUES
  ('CCCC[C@@H](C(=O)N[C@@H](CC(=O)O)C(=O)N[C@@H](Cc1cccc2ccccc12)C(N)=O)N(C)C(=O)[C@H](Cc1c[nH]c2ccccc12)NC(=O)CCOCCOCCOCCOCCNC(=O)CC[C@@H](NC(=O)CN1CCN(CC(=O)O)CCN(CC(=O)O)CCN(CC(=O)O)CC1)C(=O)O [[68Ga]Ga-DOTA-CCK-66, metal not drawn, reference compound] ({DOTA-d(γGlu)-PEG4}-W[NMeNle]D[1Nal]-NH2)', 0.87);

----------
# assay comment: in vivo
# Design: species or system BALB/c nude mice
# experimental context: mouse, Muscle uptake
Numbered stars: 1 amine (or outer) side, 2 acyl side, 3 side chain; on linkers, the order of the positions; unused ones are H or OH. Square brackets hold non-standard residues; d marks the D form. Peptide text beside a SMILES is read from it. * marks the point of attachment. DOTA = O=C(O)CN1CCN(CC(=O)O)CCN(CC(=O)*)CCN(CC(=O)O)CC1; d(γGlu) = O=C(O)[C@@H](CCC(=O)[*:2])N[*:1]; 1Nal = N[C@@H](Cc1cccc2ccccc12)C(=O)O; NMeNle = CCCC[C@H](NC)C(=O)O; PEG4 = NCCOCCOCCOCCOCCC(=O)O
metric name: tissue uptake at 0.5 h

INSERT INTO measurements (compound, metric_name, assay_result) VALUES
  ('CCCC[C@@H](C(=O)N[C@@H](CC(=O)O)C(=O)N[C@@H](Cc1cccc2ccccc12)C(N)=O)N(C)C(=O)[C@H](Cc1c[nH]c2ccccc12)NC(=O)CCOCCOCCOCCOCCNC(=O)CC[C@@H](NC(=O)CN1CCN(CC(=O)O)CCN(CC(=O)O)CCN(CC(=O)O)CC1)C(=O)O [[68Ga]Ga-DOTA-CCK-66, metal not drawn, reference compound] ({DOTA-d(γGlu)-PEG4}-W[NMeNle]D[1Nal]-NH2)', 'tissue uptake at 0.5 h', '0.52 %ID/g');

----------
# assay comment: in vivo
# Design: species or system BALB/c nude mice
# experimental context: mouse, Bone uptake
Numbered stars: 1 amine (or outer) side, 2 acyl side, 3 side chain; on linkers, the order of the positions; unused ones are H or OH. Square brackets hold non-standard residues; d marks the D form. Peptide text beside a SMILES is read from it. * marks the point of attachment. DOTA = O=C(O)CN1CCN(CC(=O)O)CCN(CC(=O)*)CCN(CC(=O)O)CC1; d(γGlu) = O=C(O)[C@@H](CCC(=O)[*:2])N[*:1]; 1Nal = N[C@@H](Cc1cccc2ccccc12)C(=O)O; NMeNle = CCCC[C@H](NC)C(=O)O; PEG4 = NCCOCCOCCOCCOCCC(=O)O
metric name: tissue uptake at 0.5 h (%ID/g)

INSERT INTO results (compound, metric_name, unit_tag, assay_result) VALUES
  ('CCCC[C@@H](C(=O)N[C@@H](CC(=O)O)C(=O)N[C@@H](Cc1cccc2ccccc12)C(N)=O)N(C)C(=O)[C@H](Cc1c[nH]c2ccccc12)NC(=O)CCOCCOCCOCCOCCNC(=O)CC[C@@H](NC(=O)CN1CCN(CC(=O)O)CCN(CC(=O)O)CCN(CC(=O)O)CC1)C(=O)O [[68Ga]Ga-DOTA-CCK-66, metal not drawn, reference compound] ({DOTA-d(γGlu)-PEG4}-W[NMeNle]D[1Nal]-NH2)', 'tissue uptake at 0.5 h', '%ID/g', 0.12);

----------
# Parameters: species or system KM mice
# experimental context: mouse, in vivo, iv
Numbered stars: 1 amine (or outer) side, 2 acyl side, 3 side chain; on linkers, the order of the positions; unused ones are H or OH. Square brackets hold non-standard residues; d marks the D form. Peptide text beside a SMILES is read from it. * marks the point of attachment. DOTA = O=C(O)CN1CCN(CC(=O)O)CCN(CC(=O)*)CCN(CC(=O)O)CC1; d(γGlu) = O=C(O)[C@@H](CCC(=O)[*:2])N[*:1]; 1Nal = N[C@@H](Cc1cccc2ccccc12)C(=O)O; NMeNle = CCCC[C@H](NC)C(=O)O; PEG4 = NCCOCCOCCOCCOCCC(=O)O
metric name: half-life (min)

INSERT INTO results (molecule, unit_tag, assay_result) VALUES
  ('CCCC[C@@H](C(=O)N[C@@H](CC(=O)O)C(=O)N[C@@H](Cc1cccc2ccccc12)C(N)=O)N(C)C(=O)[C@H](Cc1c[nH]c2ccccc12)NC(=O)CCOCCOCCOCCOCCNC(=O)CC[C@@H](NC(=O)CN1CCN(CC(=O)O)CCN(CC(=O)O)CCN(CC(=O)O)CC1)C(=O)O [[68Ga]Ga-DOTA-CCK-66, metal not drawn, reference compound] ({DOTA-d(γGlu)-PEG4}-W[NMeNle]D[1Nal]-NH2)', 'min', 11.8);
